- target.or.test.system: NTRK1 (human) (UniProt P04629)
- Sequence (P04629 whole entry, looked up): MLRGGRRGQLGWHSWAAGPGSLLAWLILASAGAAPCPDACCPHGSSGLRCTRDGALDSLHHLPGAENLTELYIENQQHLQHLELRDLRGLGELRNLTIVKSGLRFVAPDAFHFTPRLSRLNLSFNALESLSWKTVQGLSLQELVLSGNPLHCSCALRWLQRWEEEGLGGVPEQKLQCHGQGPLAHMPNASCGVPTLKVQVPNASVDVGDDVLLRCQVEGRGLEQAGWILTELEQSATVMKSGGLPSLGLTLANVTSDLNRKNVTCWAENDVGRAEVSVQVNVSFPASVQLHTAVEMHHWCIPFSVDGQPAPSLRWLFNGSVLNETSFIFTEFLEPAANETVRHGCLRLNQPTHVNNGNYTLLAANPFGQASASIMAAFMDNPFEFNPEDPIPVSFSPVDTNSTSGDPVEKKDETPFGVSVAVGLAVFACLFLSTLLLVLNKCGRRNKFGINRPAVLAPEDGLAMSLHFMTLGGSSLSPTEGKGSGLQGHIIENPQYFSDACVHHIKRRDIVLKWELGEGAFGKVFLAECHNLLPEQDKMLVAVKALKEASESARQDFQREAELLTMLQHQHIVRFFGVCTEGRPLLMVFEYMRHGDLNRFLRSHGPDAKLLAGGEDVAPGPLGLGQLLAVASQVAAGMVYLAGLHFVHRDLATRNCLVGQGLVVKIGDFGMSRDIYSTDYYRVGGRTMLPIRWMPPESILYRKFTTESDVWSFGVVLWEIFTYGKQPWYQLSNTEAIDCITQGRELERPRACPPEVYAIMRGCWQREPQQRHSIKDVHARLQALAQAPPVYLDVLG
- measurement.notes: radiometric filter-binding kinase assay, Kinase HotSpot
- protocol.conditions: compound 0.5 µM; ATP 10 µM
Returns: string. Value is T if measured residual activity is below 90%, and F if it is greater than or equal to it.

{"molecule": "CC[n+]1c(/C=C/N(C)c2ccccc2)n(-c2ccccc2)c2ccc(-c3nc4ccccc4s3)cc21", "group.label": "F"}
{"molecule": "O=C1NC(=O)c2c1c1c3ccccc3n3c1c1c2c2ccccc2n1C1CCC3O1", "group.label": "T"}
{"molecule": "Oc1cccc(-c2nc(N3CCOCC3)c3oc4ncccc4c3n2)c1", "group.label": "F"}

Could you please tell me whether residual activity recorded for CO[C@H]1CC2CC[C@@H](C)[C@@](O)(O2)C(=O)C(=O)N2CCCC[C@H]2C(=O)OC([C@H](C)C[C@@H]2CC[C@@H](O)[C@H](OC)C2)CC(=O)[C@H](C)/C=C(\C)[C@@H](O)[C@@H](OC)C(=O)[C@H](C)C[C@H](C)/C=C/C=C/C=C/1C (some centres not stated) is less than 90%?
F

Is residual activity strictly under 90% for the entry `Nc1ccc2ncnc(NCCc3ccc(Oc4ccccc4)cc3)c2c1` ?
F

I wonder whether `CCN(CC)CCNC(=O)c1c(C)[nH]c(/C=C2\C(=O)Nc3ccc(Cl)cc32)c1C` has residual activity below 90%. Can you tell?
T

Is residual activity strictly under 90% for the entry `CCN(CC)CCNC(=O)c1c(C)[nH]c(/C=C2\C(=O)Nc3ccc(F)cc32)c1C` ?
T

* * *

- target.or.test.system: UniProt:Q04912
- Sequence (Q04912 whole entry, looked up): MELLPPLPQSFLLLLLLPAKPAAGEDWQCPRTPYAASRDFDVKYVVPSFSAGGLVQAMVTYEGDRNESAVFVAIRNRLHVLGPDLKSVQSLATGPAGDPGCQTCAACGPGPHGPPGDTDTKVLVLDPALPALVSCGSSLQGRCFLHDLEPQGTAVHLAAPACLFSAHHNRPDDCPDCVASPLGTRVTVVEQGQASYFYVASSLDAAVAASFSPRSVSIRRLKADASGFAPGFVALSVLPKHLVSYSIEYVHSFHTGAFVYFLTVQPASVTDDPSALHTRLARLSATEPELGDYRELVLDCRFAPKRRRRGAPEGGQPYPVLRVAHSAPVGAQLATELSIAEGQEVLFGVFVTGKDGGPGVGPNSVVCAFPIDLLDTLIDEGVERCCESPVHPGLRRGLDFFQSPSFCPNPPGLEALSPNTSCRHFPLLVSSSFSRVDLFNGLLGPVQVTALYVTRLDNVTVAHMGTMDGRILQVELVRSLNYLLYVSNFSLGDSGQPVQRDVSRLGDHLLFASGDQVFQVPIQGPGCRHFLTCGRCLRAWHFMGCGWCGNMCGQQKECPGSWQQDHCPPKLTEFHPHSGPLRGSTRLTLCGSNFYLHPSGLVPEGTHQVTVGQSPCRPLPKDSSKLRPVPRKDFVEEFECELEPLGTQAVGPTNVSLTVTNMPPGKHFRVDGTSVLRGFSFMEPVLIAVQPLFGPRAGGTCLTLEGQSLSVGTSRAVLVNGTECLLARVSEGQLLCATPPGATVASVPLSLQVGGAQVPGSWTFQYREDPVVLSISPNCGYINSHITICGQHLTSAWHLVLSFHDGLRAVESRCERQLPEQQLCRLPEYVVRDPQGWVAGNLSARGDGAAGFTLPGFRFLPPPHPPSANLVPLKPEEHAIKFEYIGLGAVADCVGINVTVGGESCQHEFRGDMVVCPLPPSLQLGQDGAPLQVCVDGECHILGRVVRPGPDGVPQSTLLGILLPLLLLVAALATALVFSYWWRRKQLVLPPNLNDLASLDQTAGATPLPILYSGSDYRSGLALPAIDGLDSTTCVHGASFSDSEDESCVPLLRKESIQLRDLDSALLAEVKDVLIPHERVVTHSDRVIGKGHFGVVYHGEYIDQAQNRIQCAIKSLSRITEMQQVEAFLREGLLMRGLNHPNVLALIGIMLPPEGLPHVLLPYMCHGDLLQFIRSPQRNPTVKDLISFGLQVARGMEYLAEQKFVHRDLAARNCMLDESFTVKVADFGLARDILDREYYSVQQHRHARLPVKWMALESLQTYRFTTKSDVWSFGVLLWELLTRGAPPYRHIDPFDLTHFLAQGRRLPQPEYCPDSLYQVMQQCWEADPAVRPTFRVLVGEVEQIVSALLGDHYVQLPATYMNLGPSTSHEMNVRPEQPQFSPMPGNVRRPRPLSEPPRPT
- measurement.notes: radiometric filter-binding kinase assay, Kinase HotSpot
- protocol.conditions: compound 0.5 µM; ATP 10 µM
Could you please report measured residual activity for the items listed next?
Answers are plain numbers, in %.

{"compound": "CCN(CC)CCNC(=O)c1c(C)[nH]c(/C=C2\\C(=O)Nc3ccc(Cl)cc32)c1C", "units.symbol": "%", "residual activity": 96.7}
{"compound": "CC(=O)c1ccc(N2CCOCC2)cc1O", "units.symbol": "%", "residual activity": 104}
{"compound": "COc1ccc(COc2ccc(Cc3cnc(N)nc3N)cc2OC)cc1", "units.symbol": "%", "residual activity": 104}
{"compound": "CO[C@H]1CC2CC[C@@H](C)[C@@](O)(O2)C(=O)C(=O)N2CCCC[C@H]2C(=O)OC([C@H](C)C[C@@H]2CC[C@@H](O)[C@H](OC)C2)CC(=O)[C@H](C)/C=C(\\C)[C@@H](O)[C@@H](OC)C(=O)[C@H](C)C[C@H](C)/C=C/C=C/C=C/1C (some centres undefined)", "units.symbol": "%", "residual activity": 97}
{"compound": "N#CC(C#N)=C(N)/C(C#N)=C/c1ccc(O)cc1", "units.symbol": "%", "residual activity": 102}

Hey, can you go through the list below and give me residual activity for every item?
1. Cc1ccc(NC2=CC(=O)c3sc(C)nc3C2=O)cc1
2. Nc1cccc(-c2cc3c(Oc4cccc(O)c4)ncnc3[nH]2)c1
3. CCCC(=O)Oc1ccc2[nH]c(C(=O)c3cc4ccccc4[nH]3)cc2c1
4. Cc1ccc(Nc2nccc(N(C)c3ccc4c(C)n(C)nc4c3)n2)cc1S(N)(=O)=O

88.9
103
103
97.8

* * *

- target.or.test.system: MAPKAPK5 (human) (UniProt Q8IW41)
- Sequence (Q8IW41 whole entry, looked up): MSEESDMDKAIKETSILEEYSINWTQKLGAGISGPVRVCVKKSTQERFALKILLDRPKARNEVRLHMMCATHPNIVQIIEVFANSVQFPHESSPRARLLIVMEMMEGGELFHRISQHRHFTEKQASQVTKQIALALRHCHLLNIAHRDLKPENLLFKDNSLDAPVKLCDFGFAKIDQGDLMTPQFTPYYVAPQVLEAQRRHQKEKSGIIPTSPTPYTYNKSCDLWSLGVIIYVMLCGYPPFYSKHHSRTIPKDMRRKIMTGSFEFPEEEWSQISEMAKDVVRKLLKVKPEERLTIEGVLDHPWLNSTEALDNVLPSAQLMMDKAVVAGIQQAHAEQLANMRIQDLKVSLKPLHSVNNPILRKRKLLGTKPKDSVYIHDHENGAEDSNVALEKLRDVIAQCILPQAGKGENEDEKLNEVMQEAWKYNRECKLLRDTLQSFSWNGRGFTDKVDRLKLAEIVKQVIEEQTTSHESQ
- measurement.notes: radiometric filter-binding kinase assay, Kinase HotSpot
- protocol.conditions: compound 0.5 µM; ATP 10 µM
observable: residual activity (%)
Numbers only, in %.

{"molecule": "Cc1ccc(S(=O)(=O)/C=C/C#N)cc1", "target.or.test.system": "MAPKAPK5 (human) (UniProt Q8IW41)", "residual activity [%]": 88.9}
{"molecule": "O=C(Nc1cccc(Nc2nccc(Nc3cccc(C(F)(F)F)c3)n2)c1)C1CC1", "target.or.test.system": "MAPKAPK5 (human) (UniProt Q8IW41)", "residual activity [%]": 91.9}
{"molecule": "COc1cc2ncnc(Nc3cccc(Cl)c3)c2cc1OC", "target.or.test.system": "MAPKAPK5 (human) (UniProt Q8IW41)", "residual activity [%]": 89.5}
{"molecule": "Nc1cccc(-c2cc3c(Oc4cccc(O)c4)ncnc3[nH]2)c1", "target.or.test.system": "MAPKAPK5 (human) (UniProt Q8IW41)", "residual activity [%]": 125}
{"molecule": "O=C1NC(=O)/C(=C/c2ccc3c(c2)OC(F)(F)O3)S1", "target.or.test.system": "MAPKAPK5 (human) (UniProt Q8IW41)", "residual activity [%]": 98.2}
{"molecule": "CC(C)N(CCC(=O)c1ccc2ccccc2c1)Cc1ccccc1", "target.or.test.system": "MAPKAPK5 (human) (UniProt Q8IW41)", "residual activity [%]": 96.6}

Turning now to a further record.
I have this molecule here, CO[C@H]1CC2CC[C@@H](C)[C@@](O)(O2)C(=O)C(=O)N2CCCC[C@H]2C(=O)OC([C@H](C)C[C@@H]2CC[C@@H](O)[C@H](OC)C2)CC(=O)[C@H](C)/C=C(\C)[C@@H](O)[C@@H](OC)C(=O)[C@H](C)C[C@H](C)/C=C/C=C/C=C/1C (some centres not stated) , and I need its recorded residual activity.
98

* * *

- target.or.test.system: BLK (human)
- measurement.notes: radiometric filter-binding kinase assay, Kinase HotSpot
- protocol.conditions: compound 0.5 µM; ATP 10 µM
Kindly supply the reported residual activity values for the records listed here.
Answers are plain numbers, in %.

Provide the reported residual activity of each entry below, same order.
1. c1ccc(-c2n[nH]c3c2oc2ccccc23)cc1
2. Nc1ncnc2[nH]nc(Nc3ccc(F)cc3)c12
3. Nc1ccc2ncnc(NCCc3ccc(Oc4ccccc4)cc3)c2c1
4. c1ccc(-c2n[nH]cc2-c2ccnc3ccccc23)nc1
5. O=C1Nc2ccc(Cl)cc2/C1=C/c1cc(Cl)c(O)c(Cl)c1
6. COc1cc2ncnc(Nc3cccc(Cl)c3)c2cc1OC
7. O=S(=O)(c1cccc2cnccc12)N1CCCNCC1
8. O=C(Nc1cccc(Nc2nccc(Nc3cccc(C(F)(F)F)c3)n2)c1)C1CC1

88.9
101
97.1
99.9
102
68.2
85.3
99.8

# batch: return residual activity for each of the 5 molecules below
1. CCOC(=O)c1c(C)[nH]c(/C=C2\C(=O)Nc3ccccc32)c1C
2. COc1ccc(COc2ccc(Cc3cnc(N)nc3N)cc2OC)cc1
3. CCC(=O)Nc1ccc2ncnc(Nc3cccc(Br)c3)c2c1
4. CO[C@H]1CC2CC[C@@H](C)[C@@](O)(O2)C(=O)C(=O)N2CCCC[C@H]2C(=O)OC([C@H](C)C[C@@H]2CC[C@@H](O)[C@H](OC)C2)CC(=O)[C@H](C)/C=C(\C)[C@@H](O)[C@@H](OC)C(=O)[C@H](C)C[C@H](C)/C=C/C=C/C=C/1C (some centres not stated)
5. Cc1ccc(NC2=CC(=O)c3sc(C)nc3C2=O)cc1

1. 80.2
2. 98.6
3. 90.7
4. 94.8
5. 95.4

* * *

- target.or.test.system: FGFR3 (human) (UniProt P22607)
- Sequence (P22607 whole entry, looked up): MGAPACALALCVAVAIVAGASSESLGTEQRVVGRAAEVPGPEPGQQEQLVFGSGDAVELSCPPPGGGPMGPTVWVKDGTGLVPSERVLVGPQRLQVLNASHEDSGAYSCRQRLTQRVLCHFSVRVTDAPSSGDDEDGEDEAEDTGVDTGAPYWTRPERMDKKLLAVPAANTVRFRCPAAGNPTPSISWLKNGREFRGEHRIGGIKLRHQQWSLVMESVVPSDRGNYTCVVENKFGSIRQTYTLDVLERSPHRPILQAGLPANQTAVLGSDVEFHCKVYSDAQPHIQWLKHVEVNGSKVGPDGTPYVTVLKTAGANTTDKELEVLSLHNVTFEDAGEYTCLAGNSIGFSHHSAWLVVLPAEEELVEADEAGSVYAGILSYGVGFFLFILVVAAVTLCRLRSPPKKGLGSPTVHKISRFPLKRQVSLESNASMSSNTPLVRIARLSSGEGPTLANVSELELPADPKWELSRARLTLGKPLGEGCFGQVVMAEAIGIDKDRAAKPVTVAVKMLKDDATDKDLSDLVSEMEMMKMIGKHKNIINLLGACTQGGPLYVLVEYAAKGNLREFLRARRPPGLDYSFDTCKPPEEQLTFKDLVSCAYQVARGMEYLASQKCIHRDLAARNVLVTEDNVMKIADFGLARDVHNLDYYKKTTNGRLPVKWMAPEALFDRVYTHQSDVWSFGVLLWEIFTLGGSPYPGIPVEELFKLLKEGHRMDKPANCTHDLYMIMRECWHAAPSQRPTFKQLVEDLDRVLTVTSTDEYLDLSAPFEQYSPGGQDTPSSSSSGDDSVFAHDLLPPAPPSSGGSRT
- measurement.notes: radiometric filter-binding kinase assay, Kinase HotSpot
- protocol.conditions: compound 0.5 µM; ATP 10 µM
observable: residual activity (%)
Answers are plain numbers, in %.

The examples below pair each entry with its known result.
{"compound": "CNC(=O)c1cc(Oc2ccc(NC(=O)Nc3ccc(Cl)c(C(F)(F)F)c3)cc2)ccn1", "units.symbol": "%", "residual activity": 89.5}
{"compound": "CO[C@H]1CC2CC[C@@H](C)[C@@](O)(O2)C(=O)C(=O)N2CCCC[C@H]2C(=O)OC([C@H](C)C[C@@H]2CC[C@@H](O)[C@H](OC)C2)CC(=O)[C@H](C)/C=C(\\C)[C@@H](O)[C@@H](OC)C(=O)[C@H](C)C[C@H](C)/C=C/C=C/C=C/1C (some centres not stated)", "units.symbol": "%", "residual activity": 102}

For each of the items listed, what is its residual activity?
1. CCN(CC)CCNC(=O)c1c(C)[nH]c(/C=C2\C(=O)Nc3ccc(F)cc32)c1C
2. Nc1ncnc2[nH]nc(Nc3ccc(F)cc3)c12
3. c1ccc(-c2n[nH]c3c2oc2ccccc23)cc1
4. COc1ccc2c(c[n+](C)c3c4cc5c(cc4ccc23)OCO5)c1OC
5. CC(C)N(CCC(=O)c1ccc2ccccc2c1)Cc1ccccc1
6. O=c1cc(N2CCOCC2)oc2c1ccc1ccccc12

1. 39.7
2. 101
3. 97.5
4. 99.1
5. 99.8
6. 98.2

Report residual activity for each item below.
1. O=C1NC(=O)/C(=C/c2ccc3c(c2)OC(F)(F)O3)S1
2. COc1cc2ncnc(Nc3cccc(Cl)c3)c2cc1OC
3. N#CC(C#N)=C(N)/C(C#N)=C/c1ccc(O)cc1
4. O=C(Nc1cccc(Nc2nccc(Nc3cccc(C(F)(F)F)c3)n2)c1)C1CC1

96.4
88.5
98.9
95
